Test system: waterhemp (common waterhemp, Amaranthus rudis)
Assay summary: Test C greenhouse herbicide test, pre- and postemergence
Type: in vivo
Measurement setup: Postemergence, 31 g ai/ha; 0 to 100 scale (0 no effect, 100 complete control)
# Waterhemp plant response rating listing for each entry below

Compound	Waterhemp plant response rating
Cc1ccc2ccccc2c1-c1c(O)cnn(C)c1=O [Compound 56]	55
CC(=O)Oc1c(C)nn(C)c(=O)c1-c1c(C)sc2ccc(C)cc12 [Compound 25]	75
Cc1ccc2ccccc2c1-c1c(O)c(C)nn(C)c1=O [Compound 59]	85
CC(=O)Oc1c(C)nn(C)c(=O)c1-c1c(C)oc2c(C)cc(C)cc12 [Compound 16]	5
Cc1cc(C)c2ccccc2c1-c1c(O)cnn(C)c1=O [Compound 51]	30
CC(=O)Oc1c(C)nn(C)c(=O)c1-c1c(C)oc2ccc(C)cc12 [Compound 14]	5

###

Reported Plant response rating, Beggarticks values for the following molecules.
Tested on: beggarticks (hairy beggarticks, Bidens pilosa)
Assay summary: Test E greenhouse herbicide test, pre- and postemergence
Type: in vivo
Measurement setup: 62 g ai/ha, Postemergence; scale 0 to 100 (0 no effect, 100 complete control)

Compound string	System under test	Plant response rating, Beggarticks
CSCC(=O)Oc1c(C)nn(C)c(=O)c1-c1cccc2ccccc12	beggarticks (hairy beggarticks, Bidens pilosa)	95
CCOC(=O)Oc1c(C)nn(C)c(=O)c1-c1c(C)sc2c(C)cc(C)cc12	beggarticks (hairy beggarticks, Bidens pilosa)	100
CCC(=O)Oc1c(C)nn(C)c(=O)c1-c1c(C)sc2ccc(C)cc12	beggarticks (hairy beggarticks, Bidens pilosa)	95
CCOC(=O)Oc1c(C)nn(C)c(=O)c1-c1c(C)sc2ccc(C)cc12	beggarticks (hairy beggarticks, Bidens pilosa)	90
Cc1cc(C)c2sc(C)c(-c3c(OC(=O)OCCCl)c(C)nn(C)c3=O)c2c1	beggarticks (hairy beggarticks, Bidens pilosa)	100
COC(=O)Oc1c(C)nn(C)c(=O)c1-c1c(C)sc2c(C)cc(C)cc12	beggarticks (hairy beggarticks, Bidens pilosa)	100

###

System: sedge, umbrella (small-flower umbrella sedge, Cyperus difformis)
Assay summary: Test B flooded paddy test
Format: in vivo
Measurement setup: 250 g ai/ha, Flood; visual rating on scale of 0 to 100 where 0 is no effect and 100 is complete control; 13 to 15 d after treatment
Metric: Plant response rating, Sedge, Umbrella

Compound string	Value reported
CC(=O)Oc1c(C)nn(C)c(=O)c1-c1c(C)sc2ccc(C)cc12	60
CCc1nn(C)c(=O)c(-c2c(C)oc3ccccc23)c1O	0
CC(=O)Oc1c(C)nn(C)c(=O)c1-c1c(C)sc2c(C)cc(C)cc12	80
CCC(=O)Oc1c(C)nn(C)c(=O)c1-c1c(C)sc2c(C)cc(C)cc12	95
Cc1nn(C)c(=O)c(-c2cccc3ccccc23)c1OCC=Cc1ccccc1	0
C#CCOC(=O)Oc1c(C)nn(C)c(=O)c1-c1c(C)sc2ccc(C)cc12	0
Cc1n[nH]c(=O)c(-c2cccc3ccccc23)c1OC(F)F	0
Cc1nn(C)c(=O)c(-c2c(C)sc3ccccc23)c1O	0
Cc1nn(C)c(=O)c(-c2ccc(Cl)c3ccccc23)c1OS(=O)(=O)N(C)C	0

###

System: soybean (Glycine max)
Assay summary: Test C greenhouse herbicide test, pre- and postemergence
Assay type: in vivo
Measurement setup: Postemergence, 125 g ai/ha; scale 0 to 100, 0 is no effect, 100 is complete control
Simple rule here: Plant response rating, Soybean less than 20 is t, otherwise f.

Compound string	Class assignment
CCOC(=O)Oc1c(C)nn(C)c(=O)c1-c1c(C)ccc2ccccc12	f
COc1ccc2ccccc2c1-c1c(O)c(C)nn(C)c1=O	f
CCC(=O)Oc1c(C)nn(C)c(=O)c1-c1c(C)sc2ccc(Cl)cc12	f
CC(=O)Oc1c(C#N)nn(C)c(=O)c1-c1c(C)ccc2ccccc12	f
CCC(=O)Oc1c(C)nn(C)c(=O)c1-c1c(C)sc2ccc(C)cc12	t
Cc1cc(C)c2sc(C)c(-c3c(OC(=O)OC(C)C)c(C)nn(C)c3=O)c2c1	t
C#CCOC(=O)Oc1c(C)nn(C)c(=O)c1-c1c(C)sc2ccc(C)cc12	t
Cc1ccc2ccccc2c1-c1c(O)c(Cl)nn(C)c1=O	t

###

Test system: ragweed (common ragweed, Ambrosia elatior)
Assay summary: Test E greenhouse herbicide test, pre- and postemergence
Assay type: in vivo
Measurement setup: Preemergence, 250 g ai/ha; visual, scale 0 no effect to 100 complete control
Measured Plant response rating, Ragweed accompanies every entry in the list below.
Metric: Plant response rating, Ragweed

Compound	Metric	Value reported
C#CCOC(=O)Oc1c(C)nn(C)c(=O)c1-c1c(C)sc2ccc(C)cc12 [Compound 87]	Plant response rating, Ragweed	100
CCOC(=O)Oc1c(C)nn(C)c(=O)c1-c1c(C)sc2c(C)cc(C)cc12 [Compound 83]	Plant response rating, Ragweed	98
Cc1ccc2ccccc2c1-c1c(O)c(C)nn(C)c1=O [Compound 59]	Plant response rating, Ragweed	100
CC(=O)Oc1c(C)nn(C)c(=O)c1-c1c(C)sc2c(C)cc(C)cc12 [Compound 27]	Plant response rating, Ragweed	100
Cc1cc(C)c2sc(C)c(-c3c(OC(=O)OCCCl)c(C)nn(C)c3=O)c2c1 [Compound 85]	Plant response rating, Ragweed	98

###

In this section we review reported pest or weed control at 250 g/ha values for a set of compounds.
Test system: ducksalad (Heteranthera limosa)
Assay summary: Test B flooded paddy test
Format: in vivo
Measurement setup: Heteranthera limosa, 360 h; 250 g ai/ha, Flood; visual rating on scale of 0 to 100 where 0 is no effect and 100 is complete control; 13 to 15 d after treatment; read-out: Plant response rating, Ducksalad
Experimental: Plant species in the flooded paddy test selected from rice (Oryza sativa), sedge, umbrella (small-flower umbrella sedge, Cyperus difformis), ducksalad (Heteranthera limosa), and barnyardgrass (Echinochloa crus-galli) were grown to the 2-leaf stage for testing. […] Treated plants and controls were maintained in a greenhouse for 13 to 15 d, after which time all species were compared to controls and visually evaluated. […]

Compound string	System under test	pest or weed control at 250 g/ha
CC(=O)Oc1c(C)nn(C)c(=O)c1-c1c(C)oc2c(C)cccc12	ducksalad (Heteranthera limosa)	20%
CCc1sc2cc(C)cc(C)c2c1-c1c(O)c(C)nn(C)c1=O	ducksalad (Heteranthera limosa)	0%
COc1nn(C)c(=O)c(-c2c(C)c(C)cc3ccccc23)c1O	ducksalad (Heteranthera limosa)	0%
Cc1nn(C)c(=O)c(-c2c(C)oc3ccccc23)c1O	ducksalad (Heteranthera limosa)	0%

###

Test system: wheat, spring (spring wheat, Triticum aestivum)
Assay summary: Test D controlled growth environment herbicide test, pre- and postemergence
Assay type: in vivo
Measurement setup: Preemergence, 125 g ai/ha; scale 0 to 100 (0 no effect, 100 complete control)
Excerpt: […]
Metric: Plant response rating, Wheat, Spring

Compound	Value reported
CCOC(=O)Oc1c(C)nn(C)c(=O)c1-c1c(C)sc2c(C)cc(C)cc12 [Compound 83]	10
Cc1cc(C)c2sc(C)c(-c3c(OC(=O)OC(C)C)c(C)nn(C)c3=O)c2c1 [Compound 67]	0
Cc1ccc2sc(C)c(-c3c(O)c(C)nn(C)c3=O)c2c1 [Compound 1]	0
Cc1ccc2ccccc2c1-c1c(O)c(C)nn(C)c1=O [Compound 59]	80

###

Tested on: Russian thistle (Salsola kali)
Assay summary: Test D controlled growth environment herbicide test, pre- and postemergence
Assay type: in vivo
Measurement setup: Preemergence, 31 g ai/ha
Metric: Plant response rating (scale of 0 to 100), Russian Thistle

Compound	System under test	Value reported
CCOC(=O)Oc1c(C)nn(C)c(=O)c1-c1c(C)sc2ccc(C)cc12 [Compound 82]	Russian thistle (Salsola kali)	10
CC(=O)Oc1c(C)nn(C)c(=O)c1-c1ccc(F)c2ccccc12 [Compound 90]	Russian thistle (Salsola kali)	10
Cc1ccc2ccc(C)c(-c3c(O)c(C)nn(C)c3=O)c2c1 [Compound 60]	Russian thistle (Salsola kali)	15
C#CCOC(=O)Oc1c(C)nn(C)c(=O)c1-c1c(C)sc2ccc(C)cc12 [Compound 87]	Russian thistle (Salsola kali)	5

###

System: field poppy (Papaver rhoeas)
Assay summary: Test D controlled growth environment herbicide test, pre- and postemergence
Assay type: in vivo
Measurement setup: Postemergence, 31 g ai/ha; scale 0 to 100 (0 no effect, 100 complete control)
Quick reference for Field Poppy plant response rating among some compounds
Metric: Field Poppy plant response rating

Compound	Metric	Value reported
Cc1ccc2sc(C)c(-c3c(O)c(C)nn(C)c3=O)c2c1 [Compound 1]	Field Poppy plant response rating	95
CCC(=O)Oc1c(C)nn(C)c(=O)c1-c1c(C)sc2ccc(Cl)cc12 [Compound 109]	Field Poppy plant response rating	45
CC(=O)Oc1c(C)nn(C)c(=O)c1-c1c(C)cc(C)c2ccccc12 [Compound 153]	Field Poppy plant response rating	75
CCC(=O)Oc1c(C)nn(C)c(=O)c1-c1c(C)sc2c(C)cc(C)cc12 [Compound 28]	Field Poppy plant response rating	80
COC(=O)Oc1c(C)nn(C)c(=O)c1-c1c(C)sc2c(C)cc(C)cc12 [Compound 81]	Field Poppy plant response rating	100
